Ref: PubChem BioAssay (NCI)

Quick reference: TGI of the listed items.
System: HCC-2998 colon
Experiment: NCI tumour cell line growth inhibition, 48 h

>  <compound>
Cc1ccc2nc(NC(=O)C(=O)C(C#N)c3nc4ccccc4s3)sc2c1 (centres undefined)

>  <assayed target>
HCC-2998 colon

>  <TGI>
> 100 µM

$$$$
>  <compound>
COc1ccc2c3c1O[C@]1(C)C34CCN(C)C(C2)C42C=C[C@@]1(OC)c1c(O)ccc(O)c12

>  <assayed target>
HCC-2998 colon

>  <TGI>
> 100 µM

$$$$
>  <compound>
Clc1ccc(NCc2nnc(CCCCCCCCc3nnc(CNc4ccc(Cl)cc4)o3)o2)cc1

>  <assayed target>
HCC-2998 colon

>  <TGI>
> 100 µM

$$$$
>  <compound>
Oc1c(C(Nc2cccc3cccnc23)c2ccccc2)ccc2cccnc12 (centres undefined)

>  <assayed target>
HCC-2998 colon

>  <TGI>
> 100 µM

$$$$
>  <compound>
COc1cc(/C=C/C(=O)c2cccc(Nc3nc(Nc4ccccc4)nc(Nc4ccccc4)n3)c2)cc(OC)c1OC

>  <assayed target>
HCC-2998 colon

>  <TGI>
53.1 µM

$$$$
>  <compound>
C=C(C)C1=CCC[C@]2(C1)N=C(OC)[C@@H](C(C)C)N=C2OC

>  <assayed target>
HCC-2998 colon

>  <TGI>
> 100 µM

$$$$
>  <compound>
c1ccc2c(c1)cc(C1NCCc3[nH]cnc31)c1ccccc12 (centres undefined)

>  <assayed target>
HCC-2998 colon

>  <TGI>
21.8 µM

$$$$
>  <compound>
C=CCNC(=O)NC(=O)CSC1=NNC2(C(=O)N1)c1ccccc1-c1ccccc12

>  <assayed target>
HCC-2998 colon

>  <TGI>
> 10 µM

$$$$

Recorded TGI (compound COc1cc(/C=C2/C(=O)N(C(=O)OCC(C)C)C(Cc3cc(OC)c(OC)c(C)c3OC)C(=O)N2Cc2ccccc2)c(OC)c(C)c1OC (centres undefined) ): > 100 µM

====

Listed here are molecules together with their documented TGI.
System: SK-MEL-28 melanoma
Test: NCI tumour cell line growth inhibition, 48 h
Hi! Could you send only the number? It should be in µM, unit omitted.

Sure, the documented TGI for COCCOC(=O)c1c(C)n([O-])c2cc(Cl)c(Cl)cc2[n+]1=O is 61.7

Record C=C1c2ccccc2C(=O)c2c1c1c(C(=O)OC)c(O)ccc1n2Cc1ccccc1 , field TGI: 1.07

====

System: ACHN renal
Assay: NCI tumour cell line growth inhibition, 48 h
Reported TGI values follow for various molecules
# output: bare number, implied unit µM

ACHN renal assay, molecule c1ccc2[nH]c(-c3ccc(-c4nccc5c4[nH]c4ccccc45)cc3)nc2c1 , recorded TGI = 4.17

# lookup: C[C@H]1[C@H](C)CC[C@]2(CO)CC[C@]3(C)C(=CC[C@@H]4[C@@]5(C)CCCNC(C)(C)[C@@H]5CC[C@]43C)[C@H]12 on ACHN renal, TGI = 3.06

Field TGI (ACHN renal), entry COc1cc(OC(=O)c2ccccc2)cc2c1C(=O)C=CC2=O : 26.4

Hey, ACHN renal data for Cc1csc2[n+]1C(=O)/C(=C\c1ccc([N+](=O)[O-])cc1)S2 : TGI came out at 65.7

====

System: HT29 colon
Experiment: NCI tumour cell line growth inhibition, 48 h
# TGI annotations

>  <compound>
CCN(CC)c1c(C(=O)/C=C/c2ccc(OC)cc2)c(-c2ccccc2)nn(C)c1=O

>  <assay readout>
TGI

>  <result>
41.3 µM

$$$$
>  <compound>
O=C(O)C(SC(=S)c1ccc(C(=S)SC(C(=O)O)c2ccccc2)cc1)c1ccccc1 (stereo unspecified)

>  <assay readout>
TGI

>  <result>
> 100 µM

$$$$
>  <compound>
COc1ccc2cc(C(=O)/C=C/c3ccc(Cl)cc3Cl)ccc2c1

>  <assay readout>
TGI

>  <result>
51.3 µM

$$$$
>  <compound>
CNc1ncnc2c1ncn2C1C=CC(COS(N)(=O)=O)C1 (stereo unspecified)

>  <assay readout>
TGI

>  <result>
> 100 µM

$$$$
>  <compound>
Clc1ccc(C2SCc3nc4ccccc4n32)c(Cl)c1 (stereo unspecified)

>  <assay readout>
TGI

>  <result>
30.4 µM

$$$$
>  <compound>
Cc1ccc(S(=O)(=O)N/N=C/c2c(O)ccc3ccccc23)cc1

>  <assay readout>
TGI

>  <result>
> 100 µM

$$$$

CC(C)OC(=O)c1ccc(NCc2cc(O)ccc2O)cc1Cl has a reported TGI of > 93 µM

TGI for COc1ccc(-c2cn(-c3cc(OC)c(OC)c(OC)c3)c(SCc3ccccc3)n2)cc1OC is > 100 µM

Noted for COC(=O)C1(C(=O)OC)Cc2ccc(OC)cc2C2=C1C(=O)c1ccccc1C2=O : its TGI reads 59.5 µM

Item: Fc1ccc2c(c1)C1=NN(c3ccccc3)C(F)C1CO2 (stereo unspecified) | TGI: 26.3 µM
